Target: T1, human EphB3 (Homo sapiens, UniProt P54753)
T1 construct: a protein of the extracellular region of each human Eph receptor fused with the SEAP protein and the His tag; made in house; host or cells: Expi293F cells
T1 sequence (P54753 34-559 limits assumed): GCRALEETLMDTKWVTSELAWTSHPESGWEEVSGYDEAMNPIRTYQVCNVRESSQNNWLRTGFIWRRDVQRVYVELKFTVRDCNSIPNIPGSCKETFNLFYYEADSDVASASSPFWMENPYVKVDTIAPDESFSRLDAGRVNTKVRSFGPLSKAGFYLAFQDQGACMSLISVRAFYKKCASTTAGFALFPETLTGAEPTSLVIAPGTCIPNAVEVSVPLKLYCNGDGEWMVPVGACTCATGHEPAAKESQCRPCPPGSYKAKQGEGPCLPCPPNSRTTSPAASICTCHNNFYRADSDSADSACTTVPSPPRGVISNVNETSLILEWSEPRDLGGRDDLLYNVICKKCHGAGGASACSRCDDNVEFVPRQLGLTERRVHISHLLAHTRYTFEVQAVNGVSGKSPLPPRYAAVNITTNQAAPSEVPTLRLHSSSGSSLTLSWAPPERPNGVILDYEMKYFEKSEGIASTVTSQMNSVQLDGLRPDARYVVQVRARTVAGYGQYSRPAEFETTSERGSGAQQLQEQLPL
Experiment: Selectivity ELISA of humanized antibodies for human Eph receptor
Assay type: binding
Conditions: coated protein 1 nM
So basically, if hEphB3-SEAP-: absorbance at 450 nm, percentage with respect to hEphA4-SEAP-His as 100% comes in under 6% it's Fulfilled, and if it's 6% or more it's Not fulfilled.

Exam item: I'd appreciate it if you could check whether 159 (antibody, V domains shown, synthetic humanized antibody heavy chain variable region sequence; synthetic humanized antibody light chain variable region sequence) VH: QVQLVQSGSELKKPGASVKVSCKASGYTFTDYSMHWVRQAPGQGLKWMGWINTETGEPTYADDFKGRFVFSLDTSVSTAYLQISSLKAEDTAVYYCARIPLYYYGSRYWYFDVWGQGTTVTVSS VL: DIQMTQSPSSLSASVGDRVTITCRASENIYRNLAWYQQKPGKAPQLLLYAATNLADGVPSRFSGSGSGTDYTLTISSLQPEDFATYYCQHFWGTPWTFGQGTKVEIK has hEphB3-SEAP-: absorbance at 450 nm, percentage with respect to hEphA4-SEAP-His as 100% smaller than 6%.
Marked response: Fulfilled

Exam item: I'd appreciate it if you could check whether 67 (antibody, V domains shown, synthetic humanized antibody heavy chain variable region sequence; synthetic humanized antibody light chain variable region sequence) VH: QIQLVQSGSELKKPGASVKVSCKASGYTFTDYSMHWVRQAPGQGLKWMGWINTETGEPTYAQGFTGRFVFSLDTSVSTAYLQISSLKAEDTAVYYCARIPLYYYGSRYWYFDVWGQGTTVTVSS VL: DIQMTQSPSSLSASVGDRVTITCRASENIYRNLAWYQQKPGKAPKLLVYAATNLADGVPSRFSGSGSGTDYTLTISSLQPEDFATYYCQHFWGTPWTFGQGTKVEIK has hEphB3-SEAP-: absorbance at 450 nm, percentage with respect to hEphA4-SEAP-His as 100% smaller than 6%.
Marked response: Fulfilled

Exam item: I'd appreciate it if you could check whether 87 (antibody, V domains shown, constant regions without entry; synthetic humanized antibody light chain variable region sequence; synthetic humanized antibody heavy chain variable region sequence) VL: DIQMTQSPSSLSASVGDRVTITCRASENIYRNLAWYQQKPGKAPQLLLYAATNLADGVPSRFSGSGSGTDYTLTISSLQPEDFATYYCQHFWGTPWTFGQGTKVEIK VH: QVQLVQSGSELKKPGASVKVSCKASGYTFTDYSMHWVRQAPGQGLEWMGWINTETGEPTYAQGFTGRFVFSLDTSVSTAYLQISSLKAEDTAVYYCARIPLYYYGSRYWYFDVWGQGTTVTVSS has hEphB3-SEAP-: absorbance at 450 nm, percentage with respect to hEphA4-SEAP-His as 100% smaller than 6%.
Marked response: Fulfilled

Exam item: I'd appreciate it if you could check whether 160 (antibody, V domains shown, synthetic humanized antibody heavy chain variable region sequence; synthetic humanized antibody light chain variable region sequence) VH: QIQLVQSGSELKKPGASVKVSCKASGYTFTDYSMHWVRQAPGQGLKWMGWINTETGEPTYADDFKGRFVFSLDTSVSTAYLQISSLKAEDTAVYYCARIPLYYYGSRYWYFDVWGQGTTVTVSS VL: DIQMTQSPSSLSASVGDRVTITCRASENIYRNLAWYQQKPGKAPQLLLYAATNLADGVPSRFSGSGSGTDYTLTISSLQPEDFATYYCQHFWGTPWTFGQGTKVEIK has hEphB3-SEAP-: absorbance at 450 nm, percentage with respect to hEphA4-SEAP-His as 100% smaller than 6%.
Marked response: Not fulfilled

Exam item: I'd appreciate it if you could check whether 91 (antibody, V domains shown, constant regions without entry; synthetic humanized antibody light chain variable region sequence; synthetic humanized antibody heavy chain variable region sequence) VL: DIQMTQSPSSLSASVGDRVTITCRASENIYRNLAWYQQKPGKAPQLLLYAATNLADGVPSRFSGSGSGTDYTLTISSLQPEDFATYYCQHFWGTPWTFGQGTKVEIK VH: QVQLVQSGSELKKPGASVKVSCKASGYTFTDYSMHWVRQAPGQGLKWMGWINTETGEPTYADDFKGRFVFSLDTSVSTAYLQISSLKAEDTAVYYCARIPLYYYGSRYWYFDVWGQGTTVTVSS has hEphB3-SEAP-: absorbance at 450 nm, percentage with respect to hEphA4-SEAP-His as 100% smaller than 6%.
Marked response: Not fulfilled
